System: BV-2 microglial cells
RUN_DESCRIPTION: Superoxide production in microglial cells
Type: cell-based, mouse
CONDITION_DETAILS: co-incubated with NaPB 6 h, then LPS 10 min
MEASUREMENT_KIND: effect on NaPB-mediated inhibition of superoxide production

- CC(C)CCC[C@@H](C)[C@H]1CC[C@H]2[C@@H]3CC=C4C[C@@H](O)CC[C@]4(C)[C@H]3CC[C@]12C: had no effect
- COC1=C(OC)C(=O)C(C/C=C(\C)CC/C=C(\C)CC/C=C(\C)CC/C=C(\C)CC/C=C(\C)CC/C=C(\C)CC/C=C(\C)CC/C=C(\C)CC/C=C(\C)CCC=C(C)C)=C(C)C1=O: had no effect

The reported measurements were obtained from patent US20130303564A1.
